target: LsrK (Salmonella typhimurium, UniProt Q8ZKQ6); experiment: biochemical; type: biochemical, S. typhimurium
Sequence (Q8ZKQ6 whole entry): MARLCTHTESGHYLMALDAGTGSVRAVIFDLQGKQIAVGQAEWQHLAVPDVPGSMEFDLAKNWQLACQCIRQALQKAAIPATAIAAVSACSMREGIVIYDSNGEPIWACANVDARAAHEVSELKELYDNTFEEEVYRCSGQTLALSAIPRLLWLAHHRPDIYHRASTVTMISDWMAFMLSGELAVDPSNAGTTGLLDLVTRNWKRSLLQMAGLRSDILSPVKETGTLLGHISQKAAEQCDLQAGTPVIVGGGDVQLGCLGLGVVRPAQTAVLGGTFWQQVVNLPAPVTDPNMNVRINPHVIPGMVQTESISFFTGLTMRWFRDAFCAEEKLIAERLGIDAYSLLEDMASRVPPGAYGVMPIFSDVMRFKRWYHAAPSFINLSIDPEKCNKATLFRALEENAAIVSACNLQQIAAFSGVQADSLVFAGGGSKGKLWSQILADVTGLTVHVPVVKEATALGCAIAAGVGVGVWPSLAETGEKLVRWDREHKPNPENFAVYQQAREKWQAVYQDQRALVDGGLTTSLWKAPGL
MEASURED_METRIC: inhibition at 50 µM (%)
Form entry: value (%) — number only.

Input: I am curious: what inhibition at 50 µM value has been reported for O=C(O)/C=C/C=C/c1ccccc1 [JUAREZIC ACID] ?
Output: 1

Input: Next compound: CC1=CC2C(CC1=O)C(C)=CCC2C(C)C (centres unmarked) [MUUROLLADIE-3-ONE]
Output: 1

Input: Moving on to the next compound: C[C@H]1[C@H]2CC[C@H]3[C@@H]4CC=C5C[C@@H](N(C)C)CC[C@]5(C)[C@H]4CC[C@]23CN1C [CONESSINE]
Output: 2

Input: Next compound up: C=C1C(=O)O[C@H]2[C@H]1CC/C(C)=C/CC[C@@]1(C)O[C@@H]21 [PARTHENOLIDE]
Output: 3

Input: Follow-up entry: C/C(=C(\CCOP(=O)(O)O)SC(=O)c1ccccc1)N(C=O)Cc1cnc(C)nc1N [BENFOTIAMINE]
Output: 0

Input: Also OCCN(CCO)c1nc(N2CCCCC2)c2nc(N(CCO)CCO)nc(N3CCCCC3)c2n1 [DIPYRIDAMOLE] , if possible.
Output: 2

Input: Continue with C[C@]12CC[C@@H](O)C[C@@H]1CC[C@@H]1[C@@H]2CC[C@]2(C)C(=O)CC[C@@H]12 [ANDROSTERONE]
Output: 1

Input: Same for `COC(=O)[C@H](Cc1ccccc1)NC(=O)[C@@H](N)CC(=O)O`
Output: 0

Input: What do we get for Cc1cc(O)c(C=O)c2c1C(=O)Oc1c(COC(=O)/C=C/C(=O)O)c(O)c(C(=O)O)c(C)c1O2 [FUMARPRO[…]] ?
Output: 150

Input: Quick one: N#Cc1c(Cl)c(Cl)c(Cl)c(C#N)c1Cl [TETRACHLOROISOPHTHALONITRILE]
Output: 138

Input: Another compound: CO[C@@H]1[C@@H](OC(N)=O)[C@@H](O)[C@H](Oc2ccc3c(O)c(NC(=O)c4ccc(O)c(CC=C(C)C)c4)c(=O)oc3c2C)OC1(C)C [NOVOBIOCIN SODIUM]
Output: 0

Input: What about this compound? CCC1(C)CC(=O)NC1=O (centres unmarked) [ETHOSUXIMIDE]
Output: 17

Input: Next record, please: C=C(C)[C@H]1Cc2c(ccc3c(=O)c4c(oc23)COc2cc(OC)c(OC)cc2-4)O1 [DEHYDROROTENONE]
Output: 1

Input: Entry `COc1ccc(C(=O)N2CCCC2=O)cc1` please
Output: 0

Input: Another compound: CCCCC(=O)O[C@H]1CC[C@H]2[C@@H]3CCc4cc(O)ccc4[C@H]3CC[C@]12C [ESTRADIOL VALERATE]
Output: 3

Input: Try this compound too: COc1ccc2c(c1)OC1(O)COc3cc(OC)c(OC)cc3C1=C2 (centres unmarked) [12a-HYDROXY-5-DEOXYDEHYDROMUNDUSERONE]
Output: 0

Input: Record: Cc1cnc(C(=O)NCCc2ccc(S(=O)(=O)NC(=O)NC3CCCCC3)cc2)cn1 [GLIPIZIDE]
Output: 1

====

molecular target: UniProtKB Q8ZKQ6; assay: biochemical; type: biochemical, S. typhimurium; conditions: 50 µM
Where a name gives a salt, the structure may show the parent alone.
Task for the reader: assign each of the following molecules its reported Inhibition (%).

Input: // lookup Inhibition (%) | system=UniProtKB Q8ZKQ6 | key= COc1cc2nc(N(C)CCCNC(=O)C3CCCO3)nc(N)c2cc1OC (stereo not drawn)
Output: 1

Input: Cool, now C[C@]12CCC3c4ccc(OS(=O)(=O)[O-])cc4CCC3C1CC[C@H]2O.[Na+] (stereo partly drawn) [ESTRADIOL-3-SULFATE. SODIUM SALT]
Output: 0

Input: Okay, and CNC[C@H](O)c1ccc(O)c(O)c1.O=C(O)C(O)C(O)C(=O)O [ADRENALINE BITARTRATE] ?
Output: 15

Input: Would you mind doing `Cc1c[nH]c2ccccc12` as well?
Output: 1

Input: Try this molecule too: Cl.O=c1[nH]oc2c1CCNC2 [GABOXADOL HYDROCHLORIDE]
Output: 1

Input: Moving on to `COC(=O)[C@H]1[C@H]2C[C@H]3c4[nH]c5ccccc5c4CCN3C[C@@H]2CC[C@@H]1O`
Output: 2

Input: Record: Cl.c1ccc(C2CN3CCSC3=N2)cc1 (stereo not drawn) [TETRAMIZOLE HYDROCHLORIDE]
Output: 22

Input: `OC[C@H]1O[C@H]([S-])[C@H](O)[C@@H](O)[C@@H]1O.[Au+]` , same question.
Output: 104

Input: Moving on to the next molecule: O=C(/C=C/c1ccccc1)c1ccc(O)cc1O [2'.4'-DIHYDROXYCHALCONE]
Output: 19

Input: How about CC[C@H]1OC(=O)C[C@@H](O)[C@H](C)[C@@H](O[C@@H]2O[C@H](C)[C@@H](O[C@H]3C[C@@](C)(O)[C@@H](O)[C@H](C)O3)[C@H](N(C)C)[C@H]2O)[C@@H](CC=O)C[C@@H](C)C(=O)/C=C/C(C)=C/[C@@H]1CO[C@@H]1O[C@H](C)[C@@H](O)[C@@H](OC)[C@H]1OC [TYLOSIN TARTRATE] ?
Output: 1

Input: Same question for `C=CCCCCCCCCCCCc1ccco1` please.
Output: 2

Input: Item: O=C([O-])c1ccccc1-c1c2cc(I)c(=O)c(I)c-2oc2c(I)c([O-])c(I)cc12.[Na+].[Na+] [ERYTHROSINE SODIUM]
Output: 69

Input: Moving on to the next molecule: `CC(=O)Oc1cccc2c1C(=O)c1c(OC(C)=O)cc(C(=O)O)cc1C2=O`
Output: 0

Input: Consider next the molecule `COc1cc(-c2coc3cc(OCc4ccccc4)c(OC)c(O)c3c2=O)cc(O)c1OC` in the same way.
Output: 2

Input: Also COC(=O)C[C@H]1C(C)(C)[C@@H](O)[C@@H]2CC3=C4CC(O)O[C@@H](c5ccoc5)[C@]4(C)CCC3[C@@]1(C)C2=O (stereo partly drawn) [3.16-DIDEOXYMEXICANOLIDE-3beta-DIOL] ?
Output: 0

FYI, the data here is from paper PMC6627609.
